Origin of the recorded values: the Human Domainome abundance scans (Beltran et al. 2025)

Provide the reported abundance fitness of each item.
B1: Androgen receptor, residues 557 to 632; numbered along this chain, P10275 (parent)
chain: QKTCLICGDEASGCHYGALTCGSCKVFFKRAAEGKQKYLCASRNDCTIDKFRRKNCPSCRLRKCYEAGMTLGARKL

Variants of: B1
Test: abundance fitness (aPCA) (normalised: wild type 0, dead -1); higher = more abundant; growth selection in yeast, the domain comes from the species named
Settings: Homo sapiens
Just the number, please, no unit attached.

Query :: Please give the measured abundance fitness for this variant: C40V
Result :: -0.693

Query :: Requested field: abundance fitness. Item: Q1W
Result :: -0.032

Query :: Fill blank: measured abundance fitness of the variant Y38Q is ____.
Result :: -0.072

Query :: Looking for the measured abundance fitness of L19Y , can you help?
Result :: -0.101

Query :: GET /values?readout=abundance fitness&item= D45C
Result :: -0.325

Query :: Entry G13D : reported abundance fitness = ?
Result :: -0.198

Query :: Please report the recorded abundance fitness for C56S .
Result :: -0.776

Query :: Item under review: A32D . Reported abundance fitness?
Result :: 0.007

Query :: What abundance fitness value was documented for this variant, P57M ?
Result :: -0.09

Query :: Look up abundance fitness for this variant: G13V
Result :: -0.061

Query :: Tell me the measured abundance fitness of H15E , please.
Result :: 0.099

Query :: Report abundance fitness for G8K please.
Result :: -0.111

Query :: Fill in: abundance fitness of K35Q is ___
Result :: 0.007

Query :: Consider the variant A32G and give its measured abundance fitness.
Result :: -0.001

Query :: Can you look up the measured abundance fitness of F27W for me?
Result :: -0.387

Query :: Looking for the measured abundance fitness of C56K , can you help?
Result :: -0.848

Query :: Which value of abundance fitness has been reported for A73T in the records?
Result :: -0.205

Query :: Name the reported abundance fitness value associated with the variant F27P
Result :: -0.655

Query :: // lookup abundance fitness for A73G
Result :: -0.06

Query :: Fill blank: measured abundance fitness of the variant R74I is ____.
Result :: -0.317

Query :: abundance fitness for A32E ?
Result :: 0.036

Query :: Give the measured abundance fitness of Q1I .
Result :: 0.198
